Task for the reader: assign each of the following molecules its reported Ki.
TARGET_UNDER_TEST: BRD4 (BDII_E352-M457) (Homo sapiens (Human), UniProt O60885)
ASSAY_INFO: TR-FRET bromodomain binding assay, BRD4 BDII
EXPERIMENTAL_CONTEXT: mean Ki, calculated from IC50, probe Kd and probe concentration
Field format: number, assumed nM, no unit text.

Value lookup for Ki; key = "CCNC(=O)c1cc2c(-c3cc(C4(O)COC4)ccc3Oc3c(C)cc(F)cc3C)cn(C)c(=O)c2[nH]1"
1

Also "CCNC(=O)c1cc2c(-c3cc(C(C)(C)O)ccc3Oc3c(C)cc(S(C)(=O)=O)cc3C)cn(C)c(=O)c2[nH]1" ?
1.8

Also CCNC(=O)c1cc2c(-c3cc(C(C)(O)CF)ccc3Oc3c(C)cc(F)cc3C)cn(C)c(=O)c2[nH]1 (centres unmarked) ?
1.1

Also "CCNC(=O)c1cc2c(-c3cc(C4(O)CCOCC4)ccc3Oc3c(C)cc(F)cc3C)cn(C)c(=O)c2[nH]1" ?
2.3

Also "Cc1cc(F)cc(Cl)c1Oc1ccc(C(C)(C)O)cc1-c1cn(C)c(=O)c2[nH]c(C(=O)NC(C)(C)C)cc12" ?
4.6

Also Cc1cc(F)cc(C)c1Oc1ccc(C(C)(C)O)cc1-c1cn(C)c(=O)c2[nH]c(C(=O)NC3(C)CC3(F)F)cc12 (centres unmarked) ?
7.5

Also CCNC(=O)c1cc2c(-c3cc(C(O)(CC)Cc4ccc(F)cc4)cnc3Oc3c(C)cccc3C)cn(C)c(=O)c2[nH]1 (centres unmarked) ?
26.5

Also CCNC(=O)c1cc2c(-c3cc(C(O)(C(C)CC)C4CC4)cnc3Oc3c(C)cccc3C)cn(C)c(=O)c2[nH]1 (centres unmarked) ?
1.8

Also "CCNC(=O)c1cc2c(-c3cc(C(C)(C)O)ccc3Oc3c(C)cc(SC)cc3C)cn(C)c(=O)c2[nH]1" ?
2.1

Also Cc1cccc(Cl)c1Oc1ccc(C(C)(O)CO)cc1-c1cn(C)c(=O)c2[nH]c(C(=O)NC(C)(C)C)cc12 (centres unmarked) ?
2.9

Also "Cc1cc(F)cc(C)c1Oc1ccc(C(C)(C)O)cc1-c1cn(C)c(=O)c2[nH]c(C(=O)NC(C)(C)C)cc12" ?
3.4

Also "CCNC(=O)c1cc2c(-c3cc(C(C)(C)O)ccc3Oc3c(C)ccc(Cl)c3C)cn(C)c(=O)c2[nH]1" ?
1.8

Also "CCNC(=O)c1cc2c(-c3cc(C(C)(C)O)ccc3C3=CCCC3)cn(C)c(=O)c2[nH]1" ?
1.3

Also "Cc1cc(F)cc(Cl)c1Oc1ccc(C(C)(C)O)cc1-c1cn(C)c(=O)c2[nH]c(C(=O)NC(C)(C)C(F)(F)F)cc12" ?
17.5
